Record: compiled pKi on 5-hydroxytryptamine receptor 2C (Rattus norvegicus) from multiple reports.
pKi: −log10 of the molar value.
measurementLabel: pKi

Worked examples, 3 compounds total:
compound: Cn1c2c(c3ccccc31)CN(CCCOc1ccccc1)CC2
systemTested: 5-hydroxytryptamine receptor 2C (Rattus norvegicus)
measurementLabel: pKi
experimentalValue: 6.55
//
compound: Cn1c2c(c3cccc(Cl)c31)CN(CCCOc1ccc(F)cc1)CC2
systemTested: 5-hydroxytryptamine receptor 2C (Rattus norvegicus)
measurementLabel: pKi
experimentalValue: 6.65
//
compound: Cc1c(C)c2ccc(OCCCCN3CCC(c4noc5cc(F)ccc45)CC3)cc2oc1=O
systemTested: 5-hydroxytryptamine receptor 2C (Rattus norvegicus)
measurementLabel: pKi
experimentalValue: 6.41

(a) N#Cc1ccccc1N1CCN(CCCNC(=O)c2ccccn2)CC1
(b) CC(C)n1ccc2cc3c(cc21)CCN3C(=O)Nc1cccnc1
pKi comparison. Which is larger, a or b ? Choose, then provide that item's label.
b
(b: 8.00, a: 6.89)

====

Molecular target: 5-hydroxytryptamine receptor 2C (Rattus norvegicus, UniProt P08909)
Sequence (P08909 whole entry): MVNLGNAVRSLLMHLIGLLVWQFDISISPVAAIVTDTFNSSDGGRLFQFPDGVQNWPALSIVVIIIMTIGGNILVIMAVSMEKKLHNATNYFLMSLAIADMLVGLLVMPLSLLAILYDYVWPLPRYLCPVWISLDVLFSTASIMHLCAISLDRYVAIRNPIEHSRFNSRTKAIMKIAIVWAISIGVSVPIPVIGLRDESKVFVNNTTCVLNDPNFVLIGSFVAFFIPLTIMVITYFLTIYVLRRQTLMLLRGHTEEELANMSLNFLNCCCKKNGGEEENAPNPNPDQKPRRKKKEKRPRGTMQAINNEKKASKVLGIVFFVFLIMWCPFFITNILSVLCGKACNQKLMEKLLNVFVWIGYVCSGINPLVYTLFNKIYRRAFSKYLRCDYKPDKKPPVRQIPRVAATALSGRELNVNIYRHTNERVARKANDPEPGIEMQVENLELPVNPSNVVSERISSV
Reported Ki on 5-hydroxytryptamine receptor 2C (Rattus norvegicus, UniProt P08909) for assorted compounds, compiled from publications.
measurementLabel: Ki (nM)

compound: c1ccc(CCN2CCC(Cc3ccccc3)CC2)cc1
Ki [nM]: 1760
--
compound: Cc1cc2cc3c(cc2n1C)CCN3C(=O)Nc1cccnc1
Ki [nM]: 39.8
--
compound: Cn1c2c(c3ccccc31)CN(CCCC(O)c1ccc(F)cc1)CC2 (stereo unspecified)
Ki [nM]: 390
--
compound: COc1ccccc1N1CCN(CCCCOc2ccc3c(C)cc(=O)oc3c2)CC1
Ki [nM]: 1000

(P) CCOc1ccccc1N1CCN(CCCNC(=O)c2ccccn2)CC1
(Q) COc1ccc(NC(=O)Nc2ccc(OC(CCN(C)C)c3ccccc3)cc2)cc1C(F)(F)F (stereo unspecified)
// max by Ki over [ P , Q ] Select an item and report its label.
P
(P: 80 nM, Q: 3.3 nM)

====

Target or system 5-hydroxytryptamine receptor 2C (Rattus norvegicus, UniProt P08909); metric Ki; compiled from varied reports.
Target: 5-hydroxytryptamine receptor 2C (Rattus norvegicus, UniProt P08909)
Sequence (P08909 whole entry): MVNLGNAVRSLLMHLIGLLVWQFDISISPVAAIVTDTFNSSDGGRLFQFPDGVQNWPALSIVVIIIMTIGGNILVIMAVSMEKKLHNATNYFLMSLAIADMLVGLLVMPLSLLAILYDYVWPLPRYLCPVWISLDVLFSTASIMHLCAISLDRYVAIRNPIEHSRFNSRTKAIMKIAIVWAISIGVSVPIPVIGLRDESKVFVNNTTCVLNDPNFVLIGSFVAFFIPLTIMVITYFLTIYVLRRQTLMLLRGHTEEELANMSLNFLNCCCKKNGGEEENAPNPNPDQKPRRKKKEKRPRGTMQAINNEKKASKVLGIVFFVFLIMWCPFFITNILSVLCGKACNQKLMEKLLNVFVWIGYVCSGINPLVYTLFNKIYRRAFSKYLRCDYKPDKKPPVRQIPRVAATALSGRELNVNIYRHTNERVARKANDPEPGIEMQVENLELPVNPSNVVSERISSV
measurementLabel: Ki (nM)

Check out these entries, answers already filled in.
compound: COc1cc(NC(=O)Nc2ccc(OC(CCN(C)C)c3ccccc3)cc2)ccc1Cl (stereo unspecified)
unitsSymbol: nM
Ki: 16.3
//
compound: Cn1ccc2ccc(OCCCN3CCC(c4noc5cc(F)ccc45)CC3)cc2c1=O
unitsSymbol: nM
Ki: 129
//
compound: O=C(NCCCN1CCN(c2ccccc2Cl)CC1)c1ccccn1
unitsSymbol: nM
Ki: 1050
//
compound: O=C(NCCCN1CCN(c2ccc(Cl)cc2)CC1)c1ccccn1
unitsSymbol: nM
Ki: 39.7
//
compound: CN1CCc2cc3c(cc21)CCN3C(=O)Nc1cccnc1
unitsSymbol: nM
Ki: 63.1

(I) CN1CCN(c2nc3ccccc3c3c2CC2CCC3C2)CC1 (stereo unspecified)
(II) COc1ccccc1N1CCN(CCCNC(=O)c2ccccn2)CC1
Compare I and II by numeric Ki and name the larger one. Identify your pick by its label.
I

====

pKi: −log10 of the molar value.
Below are pKi values for 5-hydroxytryptamine receptor 2C (Rattus norvegicus) collected from several publications.
measurementLabel: pKi

(1) CN(C)CCC(Oc1ccc(NC(=O)Nc2ccc3c(ccn3C)c2)cc1)c1ccccc1 (configuration not stated)
(2) OC(c1ccc(F)cc1)C1CCN(CCCCc2ccccc2)CC1 (configuration not stated)
Between 1 and 2 , which one shows the larger pKi value? When you have decided, please share the label of that item.
1

(1) O=C(NCCCN1CCN(c2ccc(F)cc2)CC1)c1ccccn1
(2) Cc1cccc(N2CCN(CCCNC(=O)c3ccccn3)CC2)c1C
Looking at recorded values for pKi, does 1 or 2 come in lower? Use the label to indicate which entry you chose.
2
(2: 6.98, 1: 7.93)

(I) Cn1ccc2cc(NC(=O)Nc3cccnc3)ccc21
(II) Cc1ccc(C(=O)Nc2ccc(OC(CCN(C)C)c3ccccc3)cc2)cc1Cl (configuration not stated)
(III) C(/Cc1ccccc1)=C(\c1ccccc1)C1CCN(CCCCc2ccccc2)CC1
(IV) COc1ccccc1N1CCN(CCCCc2ccc3c(c2)oc(=O)n3CCN2CCC(C(=O)c3ccc(F)cc3)CC2)CC1
(V) CN(C)CCC(Oc1ccc(NC(=O)Nc2ccc3ccn(C)c3c2)cc1)c1ccccc1 (configuration not stated)
Rank the 5 compounds: largest pKi first, smallest last. # the answer lists labels in the order requested
V, II, IV, I, III

(P) COc1ccc(CCCCN2CCc3c(c4ccccc4n3C)C2)cc1
(Q) O=c1c2c(on1Cc1ccc(I)cc1)CCNCC2
(R) Cn1ccc2c3c(ccc21)CCN3C(=O)Nc1cccnc1
(S) CCOC(=O)c1[nH]c2ccc(CCN3C(=O)CNC3=O)cc2c1CCN(C)C
(T) CC(Nc1nccc(NCCOc2ccc(F)cc2)n1)c1ccccc1 (racemic)
Arrange items by their pKi values in increasing order. Record the ranking as a list of labels in the requested order.
S, P, R, T, Q
(S: 5.26, P: 6.00, R: 6.70, T: 7.40, Q: 7.99)

====

Compiled from multiple publications: Ki readings for 5-hydroxytryptamine receptor 2C (Rattus norvegicus, UniProt P08909).
Target: 5-hydroxytryptamine receptor 2C (Rattus norvegicus, UniProt P08909)
Sequence (P08909 whole entry): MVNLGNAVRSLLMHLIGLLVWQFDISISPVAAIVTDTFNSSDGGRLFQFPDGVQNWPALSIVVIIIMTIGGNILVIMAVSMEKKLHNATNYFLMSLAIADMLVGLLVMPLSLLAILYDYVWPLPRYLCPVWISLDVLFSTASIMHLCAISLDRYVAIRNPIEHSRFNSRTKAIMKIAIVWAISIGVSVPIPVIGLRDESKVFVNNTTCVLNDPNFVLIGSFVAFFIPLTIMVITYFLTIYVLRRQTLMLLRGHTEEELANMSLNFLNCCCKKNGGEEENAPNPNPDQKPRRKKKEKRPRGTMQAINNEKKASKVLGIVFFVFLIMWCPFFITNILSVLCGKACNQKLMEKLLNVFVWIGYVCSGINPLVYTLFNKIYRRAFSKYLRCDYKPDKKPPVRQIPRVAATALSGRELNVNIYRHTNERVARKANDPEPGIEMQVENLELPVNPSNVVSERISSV
measurementLabel: Ki (µM)

Solved entries:
molecule: O=C(NCCCN1CCN(c2ccccc2)CC1)c1ccccn1
measurementLabel: Ki
experimentalValue: 0.111
--
molecule: CN(C)CCC(Oc1ccc(NC(=O)N(C)c2ccc(Cl)c(Cl)c2)cc1)c1ccccc1 (stereo not given)
measurementLabel: Ki
experimentalValue: 0.0789
--
molecule: O=S(=O)(c1ccc(C(F)(F)F)cc1)N1CCC(CN2CCC(c3noc4cc(F)ccc34)CC2)CC1
measurementLabel: Ki
experimentalValue: 0.137

(P) CN1CCCC[C@H]1CCN1c2ccccc2Sc2ccc([S@](C)=O)cc21
(Q) CN(C)CCC(Oc1ccc(NC(=O)c2ccc(Cl)c(Cl)c2)cc1)c1ccccc1 (stereo not given)
// compare measured Ki between P and Q ; output the lower one Could you answer with the label of the item you picked?
Q
(Q: 0.0571 µM, P: 0.41 µM)

(1) COc1ccccc1N1CCN(CCCCc2ccc3c(c2)sc(=O)n3CCN2CCC(C(=O)c3ccc(F)cc3)CC2)CC1
(2) O=C(NCCN1CCN(Cc2ccc3c(c2)OCO3)CC1)c1ccccn1
Smaller Ki value? Options are 1 and 2 Write down the label attached to your selection.
2
